- System: guinea pig ileal strips
- assay.overview: Modified Schultz-Dale Assay: inhibition of antigen-induced anaphylactic contraction of passively sensitized ileal strips
- Assay type: cell-based
- condition.context: Cavia porcellus; 75 μM, added at peak of contraction after antigen; read-out: Postchallenge mean percent inhibition
experimental.readout: inhibition at 75 µM (%)

smiles | experimental.readout | quantitative.readout
CCCCOc1ccc(C(=O)c2cccc(C(=O)O)c2)c(OC)c1 | inhibition at 75 µM | 46
CCCCCCCc1ccc(C(=O)CCCCC(=O)O)cc1[N+](=O)[O-] | inhibition at 75 µM | 28
CCCCCCCc1ccc(C(=O)c2cccc(-c3nn[nH]n3)c2)cc1 | inhibition at 75 µM | 14
CCCCCCCc1ccc(C(=O)c2ccc(C(=O)O)cc2)cc1 | inhibition at 75 µM | 16
CCCCOc1ccc(C(=O)CCCCC(=O)O)cc1 | inhibition at 75 µM | 29
CCCCCCCc1ccc(C(=O)Cc2cccc(C(=O)O)c2)cc1 | inhibition at 75 µM | 70
